Below, each of the binders is paired with its reported EC50 value.
Target: T1, recombinant human CD73 protein (ACRO Biosystems, item No. CD3-H52H7) (human, UniProt P21589 27-547)
T1 construct: also called recombinant CD73 protein
T1 sequence (looked up): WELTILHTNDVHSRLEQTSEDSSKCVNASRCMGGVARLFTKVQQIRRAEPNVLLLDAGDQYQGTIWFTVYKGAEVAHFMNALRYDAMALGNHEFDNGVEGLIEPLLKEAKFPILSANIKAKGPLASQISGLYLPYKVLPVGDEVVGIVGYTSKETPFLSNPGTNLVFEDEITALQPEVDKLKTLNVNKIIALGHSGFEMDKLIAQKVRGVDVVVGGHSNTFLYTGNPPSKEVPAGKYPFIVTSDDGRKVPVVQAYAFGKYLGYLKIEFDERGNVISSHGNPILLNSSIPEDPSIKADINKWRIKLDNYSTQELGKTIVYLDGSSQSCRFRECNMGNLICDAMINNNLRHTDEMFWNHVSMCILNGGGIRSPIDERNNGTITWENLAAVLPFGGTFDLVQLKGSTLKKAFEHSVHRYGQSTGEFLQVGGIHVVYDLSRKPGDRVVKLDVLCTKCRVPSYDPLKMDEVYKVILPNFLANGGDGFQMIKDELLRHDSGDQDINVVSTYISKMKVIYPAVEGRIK
Assay: ELISA, plate coated with CD73 protein, anti-human-IgG-Fc-HRP
measurement label: EC50 (µg/mL)

>  <binder>
900726 (humanized anti-CD73 antigen-binding protein) (antibody, V domains shown) VH: QVQLVQSGAEVKKPGASVKLSCKASGYTFTSYWIHWVRQAPGQGLEWIGMIHPNSGSTYYNEKFKGRATLTVDKSTSTAYMELSSLRSEDTAVYYCARYYGSDYEWYFDVWGQGTTVTVSS VL: DIQMTQSPSSLSASVGDRVTITCKASQNVRTAVVWYQQKPGKAPKALIYLASNRHTGVPDRFSGSGSGTDFTLTISSLQPEDFATYYCLQHWNYPYTFGQGTKLEIK

>  <unit name>
µg/mL

>  <observed>
0.361

$$$$
>  <binder>
900727 (humanized anti-CD73 antigen-binding protein) (antibody, V domains shown) VH: QVQLVQSGAEVKKPGASVKVSCKASGYTFTSYWIHWVRQAPGQGLEWIGMIHPNSGSTYYAQKFQGRVTITVDKSTSTAYMELSSLRSEDTAVYYCARYYGSDYEWYFDVWGQGTTVTVSS VL: DIQMTQSPSSMSASVGDRVTITCKASQNVRTAVVWYQQKPGKAPKALIYLASNRHTGVPDRFSGSGSGTDFTLTISSLQPEDFATYFCLQHWNYPYTFGQGTKLEIK

>  <unit name>
µg/mL

>  <observed>
0.364

$$$$
